- Test system: IL-6
- method-summary: Cytokine production inhibitory activity, Concanavalin A stimulated mononuclear cells, ELISA: IL-6
- Type: cell-based
- condition-summary: Homo sapiens, IL-6 in culture supernatant, Concanavalin A 5 µg/ml, forty-eight hours
assay-endpoint: pIC50
pIC50 is a log-scale quantity: -log10 of the concentration expressed in molar.

*Q* Given CC(NC(=O)N1C(=O)C(Cc2ccccc2)C1Oc1ccc(C(=O)N2CCN(C)CC2)cc1)c1ccccc1 (stereo not shown) , state its recorded pIC50.
*A* 5.19

====

Listed here: items and their measured pIC50.
- Test system: IL-1β
- method-summary: Cytokine production inhibitory activity, Concanavalin A stimulated mononuclear cells, ELISA: IL-1β
- Assay type: cell-based
- condition-summary: IL-1β in culture supernatant, human mononuclear cells, Concanavalin A 5 µg/ml, forty-eight hours
FYI, pIC50 means -log10 of a concentration in mol per litre.

CC(NC(=O)N1C(=O)C(Cc2ccccc2)C1Oc1ccc(C(=O)N2CCN(C)CC2)cc1)c1ccccc1 (centres unmarked) [Compound I-39] : 5.57

Then this compound:
*Q* I am curious: what pIC50 value has been reported for CC(NC(=O)N1C(=O)C(Cc2ccccc2)C1Oc1ccc(C(=O)N2CCN(C)CC2)cc1)c1ccccc1 (centres unmarked) [Compound I-62] ?
*A* 4.95

Numbers sourced from patent EP1099690A1.
